# inhibition values compiled below
# STUDY TARGET: Ephrin type-B receptor 3 (Homo sapiens) (UniProt P54753);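 further: values are mean percent inhibition of EPHB3 from the GSK PKIS screening panel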
# Sequence (P54753 whole entry): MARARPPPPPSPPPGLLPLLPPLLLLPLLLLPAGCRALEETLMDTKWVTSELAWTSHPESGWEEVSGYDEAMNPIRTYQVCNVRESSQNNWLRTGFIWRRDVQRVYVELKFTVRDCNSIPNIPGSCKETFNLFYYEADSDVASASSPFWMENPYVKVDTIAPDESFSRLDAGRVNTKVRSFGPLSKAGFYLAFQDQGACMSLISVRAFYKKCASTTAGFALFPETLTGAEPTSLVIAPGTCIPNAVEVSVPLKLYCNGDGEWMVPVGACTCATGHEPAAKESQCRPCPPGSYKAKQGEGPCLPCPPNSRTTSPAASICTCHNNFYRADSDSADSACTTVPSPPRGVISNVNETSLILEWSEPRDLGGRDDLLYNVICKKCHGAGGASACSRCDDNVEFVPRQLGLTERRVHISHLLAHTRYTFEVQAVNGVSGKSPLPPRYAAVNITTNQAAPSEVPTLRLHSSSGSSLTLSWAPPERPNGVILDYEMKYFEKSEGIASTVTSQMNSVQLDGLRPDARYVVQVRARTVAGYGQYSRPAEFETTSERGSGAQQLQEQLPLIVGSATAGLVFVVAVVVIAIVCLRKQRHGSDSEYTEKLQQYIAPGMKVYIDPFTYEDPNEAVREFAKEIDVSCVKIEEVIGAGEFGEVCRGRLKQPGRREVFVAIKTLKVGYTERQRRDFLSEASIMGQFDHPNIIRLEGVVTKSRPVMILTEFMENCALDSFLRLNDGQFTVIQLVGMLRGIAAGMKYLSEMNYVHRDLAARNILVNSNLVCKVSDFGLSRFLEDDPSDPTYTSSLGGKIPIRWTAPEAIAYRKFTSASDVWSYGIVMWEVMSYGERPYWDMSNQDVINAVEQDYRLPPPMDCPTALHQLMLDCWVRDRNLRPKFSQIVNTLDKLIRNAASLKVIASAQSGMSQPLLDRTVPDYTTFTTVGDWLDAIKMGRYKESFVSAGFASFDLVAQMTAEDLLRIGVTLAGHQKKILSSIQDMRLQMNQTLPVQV
# COND: at 1 µM

COMPOUND: CC1=C(C(=O)Nc2ccc3[nH]ncc3c2)C(c2ccc(F)cc2)NC(=O)N1 (centres undefined)
inhibition: 1.2%
--
COMPOUND: CCn1c(-c2nonc2N)nc2cnc(Oc3cccc(NC(=O)c4ccc(OCCN5CCOCC5)cc4)c3)cc21
inhibition: 5.06%
--
COMPOUND: COc1ccc(-c2nn3ncccc3c2-c2ccnc(Nc3ccc(Cl)c(C(F)(F)F)c3)n2)cc1
inhibition: 4.88%
--
COMPOUND: NCc1ccc(-c2nc(-c3ccc(Cl)c(O)c3)c(-c3ccncc3)[nH]2)cc1
inhibition: 12.8%
--
COMPOUND: CS(=O)(=O)CCNCc1ccc(-c2ccc3ncnc(Nc4ccc(OCc5cccc(F)c5)c(C(F)(F)F)c4)c3c2)o1
inhibition: 3.96%
--
COMPOUND: CCN1CCC(CC(=O)Nc2n[nH]c3nc(-c4cccs4)c(Br)cc23)CC1
inhibition: -3.61%
--
COMPOUND: N#Cc1c(NC(=O)c2cccc3ccccc23)sc2c1CCCC2
inhibition: 3.56%
--
COMPOUND: CN(C)c1cc2c(Nc3ccc4nc(Cc5ccccc5)[nH]c4c3)ncnc2cn1
inhibition: 4.22%
--
COMPOUND: Fc1cccc(COc2ccc(Nc3ncnc4sc(-c5cccs5)cc34)cc2Cl)c1
inhibition: 2.19%

All figures here come from ChEMBL document CHEMBL1961873.
